Entries annotated with measured inhibition
assay: clotrimazole potentiators killing Candida biofilms, primary screen, with clotrimazole, Alamar Blue (AID 834);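 also: preformed 24 hr biofilms exposed to compound for 48 hr; 0% = biofilm without compound and 100% = blank killed by clotrimazole plus chlorhexidine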; details: C. albicans biofilm + clotrimazole, at 6 µM, hits give high values
Screen size: about 85,000 compounds; about 120 (0.14%) were called active. The list comes from a sample in which actives are over-represented; it also holds close analogues and randomly drawn compounds.
Lab book: enter the figure in %, no units written.

Solved entries:
- molecule: "CCCCNC(=O)C1CCCNC1=O (stereo unspecified)"
  value: 1.47
- molecule: "COc1ccc(CCN2C(=O)C3CC=C(C)CC3C2=O)cc1OC (stereo unspecified)"
  value: 1.85
- molecule: "COC(=O)c1sc(=S)n(-c2ccc(Cl)cc2)c1C"
  value: 5.98
- molecule: "CCOC(=O)C(C)n1cnc2sc(C)c(C)c2c1=O (stereo unspecified)"
  value: 9.63
- molecule: "CC1CCCN(C(C(=O)Nc2ccc(C(C)C)cc2)c2ccc3c(c2)OCO3)C1 (stereo unspecified)"
  value: 6.31

// recorded inhibition for "Cc1[nH]n(-c2ccc(Cl)cc2)c(=O)c1/C=N/n1c(C)nc2ccccc2c1=O" : 7.46

----------
assay: clotrimazole potentiators killing Candida biofilms, primary screen, with clotrimazole, Alamar Blue (AID 834); conditions: C. albicans biofilm + clotrimazole, at 6 µM, hits give high values
The whole screen tested about 85,000 compounds, of which about 120 (0.14%) were called active. For the sample, actives were picked, then their nearest neighbours and some compounds at random.
readout.name: inhibition (%)
Numbers only; they are read as %.

# annotated cases, reported inhibition shown
- compound: "Cc1ccc(CNC(=O)COc2ccc(S(=O)(=O)NC(C)C)cc2)cc1"
  value: 4.65
- compound: "Cc1ccc(-c2cc(C(=O)NCC3CCCO3)c3ccccc3n2)o1 (centres undefined)"
  value: 5.01
- compound: "CCSc1nc(-c2ccc(OC)cc2)cc(-c2ccc(OC)cc2)c1C#N"
  value: 3.4
- compound: "Cc1cc(C(=O)OC(C)C(=O)Nc2cccc(S(=O)(=O)N3CCOCC3)c2)c(C)o1 (centres undefined)"
  value: 0.93

Turning to the following compound.
Record summary for "COc1ccc(S(=O)(=O)NCc2ccc(C(=O)N(C)Cc3ccco3)cc2)cc1" : reported inhibition = 4.38

----------
test: clotrimazole potentiators killing Candida biofilms, primary screen, with clotrimazole, Alamar Blue (AID 834); settings: C. albicans biofilm + clotrimazole, at 6 µM, hits give high values
In all, about 85,000 compounds went through this assay and about 120 (0.14%) were called active. The sample as a whole holds a higher share of actives than the screen did.
readout.name: inhibition

// known answers, use as guide
- molecule: "COc1ccc(OC)c(-n2nnnc2SCC(=O)Nc2cc(C)ccc2OC)c1"
  inhibition: "4% (inactive)"
- molecule: "COc1ccc(NC(=O)Cn2c(=O)n(Cc3ccco3)c(=O)c3ccccc32)cc1"
  inhibition: "7.9% (inactive)"
- molecule: "CCCOc1cc(C)c(S(=O)(=O)n2nnc3ccccc32)cc1C"
  inhibition: "2.8% (inactive)"
- molecule: "CCOc1cc(NC(=O)c2cnccn2)c(OCC)cc1NC(=O)c1ccc(C)cc1"
  inhibition: "10.1% (inactive)"
- molecule: "OC(c1ccccc1)c1nccn1Cc1ccccc1 (configuration not stated)"
  inhibition: "6.12% (inactive)"

Per the records, this molecule ( "COc1cc2c(cc1OC)C(C(C)C)=NC(C)(C)C2" ) has inhibition equal to 4.82% (inactive)

The recorded inhibition for entry "O=c1[nH][nH]c(C(F)(F)F)c1C=NCc1ccccc1Cl" equals -3.59% (inactive)

Field inhibition (entry "CCOCCn1c(C(C)C)nc2ccccc21" ) reads 0.21% (inactive)

Entry under test: "Cc1ccc(N(Cc2ccc(C(=O)Nc3ccccc3C(=O)NCc3ccco3)cc2)S(C)(=O)=O)cc1C" . Its inhibition was 0.88% (inactive)

----------
assay: clotrimazole potentiators killing Candida biofilms, primary screen, with clotrimazole, Alamar Blue (AID 834); conditions: C. albicans biofilm + clotrimazole, at 6 µM, hits give high values
In all, about 85,000 compounds went through this assay and about 120 (0.14%) were called active. The full list was thinned out, with actives kept by preference.
readout.name: inhibition (%)
# output: bare number, implied unit %

Recorded inhibition, per entry:
- molecule: "Cc1ccccc1-c1nnc(SCC(=O)NCc2ccc3c(c2)OCO3)n1C"
  readout.name: "inhibition"
  value.unit: "%"
  value: 4.85
- molecule: "Oc1ccc(-c2onc3ccc(Cl)cc23)cc1"
  readout.name: "inhibition"
  value.unit: "%"
  value: 3.22
- molecule: "O=C(c1ccccc1Oc1ccccc1)N1CCN(c2ccc(F)cc2)CC1"
  readout.name: "inhibition"
  value.unit: "%"
  value: 6.89
- molecule: "CCCc1nc2sc3c(c2c(=O)n1NC(=O)CCCl)CCCC3"
  readout.name: "inhibition"
  value.unit: "%"
  value: -7.02

Notebook: "Cc1cc(SCC(=O)c2ccccc2)nc(SCC(=O)c2ccccc2)n1" , inhibition read as 9.02

----------
assay: clotrimazole potentiators killing Candida biofilms, primary screen, with clotrimazole, Alamar Blue (AID 834); conditions: C. albicans biofilm + clotrimazole, at 6 µM
Hit rate of the full screen: of about 85,000 compounds, about 120 (0.14%) were called active.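 Rule for the calls: active = inhibition above 20%; inactive = inhibition below 20%.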 Only a selection was taken, and actives are over-represented in it overall.
// one of T (active), F (inactive), no free text

- compound: "O=C1C(Cl)=C(N2CCOCC2)C(=O)N1c1ccccc1"
  category.label: "F"
- compound: "Cc1nnc(SCc2nc3ccccc3nc2C)s1"
  category.label: "F"
- compound: "CCCCNC(=O)C1(c2ccc(OC)cc2)CCOCC1"
  category.label: "F"
- compound: "COc1ccc(CN(Cc2ccco2)S(=O)(=O)c2ccc(S(=O)(=O)N3CCCC3)cc2)cc1"
  category.label: "F"

Could you now look at the following compound, please?
Call for entry "COC(=O)c1cccc(-n2[nH]nnc2=S)c1" : F

----------
inhibition values for the compounds below.
assay: clotrimazole potentiators killing Candida biofilms, primary screen, with clotrimazole, Alamar Blue (AID 834);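 also: preformed 24 hr biofilms exposed to compound for 48 hr; 0% = biofilm without compound and 100% = blank killed by clotrimazole plus chlorhexidine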; conditions: C. albicans biofilm + clotrimazole, at 6 µM, hits give high values
Out of some 85,000 compounds screened, about 120 (0.14%) were called active. Only a selection was taken, and actives are over-represented in it overall.
The reply should be a number in %, with the unit left off.

Before answering, review these 5 worked examples.
- compound: "CC(=O)Nc1ccc(NC(=O)CSCc2cnn(-c3ccccc3)c2-n2cccc2)cc1"
  inhibition (%): 5.53
- compound: "S=C1NC(c2ccccc2)=NCN1c1ccc(Br)cc1"
  inhibition (%): 5.98
- compound: "CC(C)(C)c1nc2ccccc2c(=O)n1N1C(=O)c2ccccc2C1=O"
  inhibition (%): 1.87
- compound: "CCc1c(O)cc2n(c1=O)-c1ccccc1C2(C)C"
  inhibition (%): 5.21
- compound: "Cc1noc(COc2ccccc2OCc2onc(C)c2Cl)c1Cl"
  inhibition (%): -3.84

In plain terms, "O=C(Nc1ccccc1-c1nnn(CC(=O)N2CCCc3ccccc32)n1)c1cccc(Cl)c1" has a documented inhibition of -4.65

The compound "COC(=O)[C@@H](NC(=O)Nc1cc(Cl)ccc1C)C(C)C" showed inhibition equal to 10.7

Memo: "Cc1nnc(SCC(=O)NC2CCCC2)s1" , reported inhibition: 1.39

----------
Form field: inhibition (one value per entry).
experiment: clotrimazole potentiators killing Candida biofilms, primary screen, with clotrimazole, Alamar Blue (AID 834);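 also: preformed 24 hr biofilms exposed to compound for 48 hr; 0% = biofilm without compound and 100% = blank killed by clotrimazole plus chlorhexidine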; details: C. albicans biofilm + clotrimazole, at 6 µM, hits give high values
In all, about 85,000 compounds went through this assay and about 120 (0.14%) were called active. What follows is part of a selection rich in actives, with near analogues and random picks from the rest.
Field: numeric (%). Do not append units.

Examples with their reported inhibition follow.
- compound: "CCOc1ccccc1NC(=O)c1cccnc1"
  value.unit: "%"
  inhibition: 4.81
- compound: "COC(=O)Nc1ncc(CN2CCCCC2)s1"
  value.unit: "%"
  inhibition: -1.41

What the record says about Cc1cccc(NC(=O)C2CC(=O)OC23CCCC3)c1 (stereo not drawn) : inhibition is -0.65

----------
assay: clotrimazole potentiators killing Candida biofilms, primary screen, with clotrimazole, Alamar Blue (AID 834);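 also: preformed 24 hr biofilms exposed to compound for 48 hr; 0% = biofilm without compound and 100% = blank killed by clotrimazole plus chlorhexidine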; conditions: C. albicans biofilm + clotrimazole, at 6 µM
About 120 (0.14%) of roughly 85,000 compounds were called active.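 How the source made its calls: active means inhibition above 20%; inactive means inhibition below 20%.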 The list comes from a sample in which actives are over-represented; it also holds close analogues and randomly drawn compounds.
# output must be one of yes (active), no (inactive)

Some solved entries appear below for comparison.
- molecule: "CN(C)[C@@H]1C(=O)C(C(N)=O)=C(O)[C@@]2(O)C(=O)C3=C(O)c4c(O)ccc(Cl)c4[C@@H](O)[C@H]3C[C@@H]12"
  category.label: "yes"
- molecule: "Cc1nn(Cc2ccccc2)c2c1C(c1ccccc1)C(C#N)=C(N)O2 (centres undefined)"
  category.label: "no"
- molecule: "CCCc1cc(=O)[nH]c(SCC(=O)c2cc(C)n(CCC)c2C)n1"
  category.label: "no"

Shift focus to the following entry.
Record lookup: outcome of this test for CC(=O)NC1=NN(C(C)=O)C(C)(c2ccc(Cl)s2)S1 (centres undefined) ? no

// data source = PubChem BioAssay AID834
